Tested on: M14
assay name: NCI tumour cell line growth inhibition, 48 h
Active and inactive are the calls of the source. Cut-off read from the data, not from the text of the source: active = GI50 up to about 1.1 µM and inactive = higher.
Can you answer with just one of these options? active, inactive

Record request — test call for O=C(CCc1cc(O)cc(O)c1)NCCc1ccc(O)c(O)c1
inactive

Follow-up entry: COc1cccc(C2C(C(=O)O)=C(CO)Oc3cc4c(cc32)OCO4)c1 (stereo unspecified)
inactive

Follow-up entry: O=C1NC(=S)N(c2cccc3ccccc23)C(=O)/C1=C/c1c[nH]c2ccccc12
inactive

Follow-up entry: CCC1(O)CC(OC2CC(N(C)C)C(OC3CC(O)C(OC4CCC(=O)C(C)O4)C(C)O3)C(C)O2)c2c(O)c3c(c(O)c2C1C(=O)OC)C(=O)c1cccc(O)c1C3=O (stereo unspecified)
active

Follow-up entry: CC1(c2cccc3ccccc23)OC(=O)c2ccccc21 (stereo unspecified)
inactive

Follow-up entry: NC(=O)NC(=O)c1cccc(NC(=O)CF)c1
inactive
